// provenance: patent US10550105B2

Overview of recorded pIC50 for various compounds
- targetEntity: PARP7 (Homo sapiens (Human), UniProt Q7Z3E1)
- Sequence (Q7Z3E1 whole entry): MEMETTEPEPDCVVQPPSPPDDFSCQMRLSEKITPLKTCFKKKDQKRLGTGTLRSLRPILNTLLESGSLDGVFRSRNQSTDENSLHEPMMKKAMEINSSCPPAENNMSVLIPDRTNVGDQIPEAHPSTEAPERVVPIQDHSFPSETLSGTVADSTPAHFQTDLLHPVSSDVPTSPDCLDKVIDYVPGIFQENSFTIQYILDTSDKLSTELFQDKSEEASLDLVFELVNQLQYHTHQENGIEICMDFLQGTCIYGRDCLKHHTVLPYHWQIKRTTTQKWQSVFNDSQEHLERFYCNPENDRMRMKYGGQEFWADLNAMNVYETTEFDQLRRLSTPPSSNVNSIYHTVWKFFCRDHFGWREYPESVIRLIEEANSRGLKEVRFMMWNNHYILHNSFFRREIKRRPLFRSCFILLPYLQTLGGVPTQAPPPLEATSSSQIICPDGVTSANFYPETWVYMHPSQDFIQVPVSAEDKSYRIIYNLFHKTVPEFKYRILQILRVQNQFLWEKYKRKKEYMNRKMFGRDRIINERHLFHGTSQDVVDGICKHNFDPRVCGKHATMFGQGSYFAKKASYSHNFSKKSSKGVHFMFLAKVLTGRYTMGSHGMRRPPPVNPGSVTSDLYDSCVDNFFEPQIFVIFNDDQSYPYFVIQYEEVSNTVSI
- procedureSummary: Enzymatic assay for inhibition of PARP7: TR-FRET displacement of biotinylated Probe A from the TIPARP active site
- measurementParameters: Table A-1
pIC50: −log10 of the molar value.

// map O=C(O)c1cccc(OCC2c3ccccc3CN2c2cn[nH]c(=O)c2C(F)(F)F)c1 (stereo not drawn) to recorded pIC50 (system: PARP7 (Homo sapiens (Human), UniProt Q7Z3E1))
≤ 6.00

Please provide the recorded pIC50 for N#Cc1ccc(N2CCN(C(=O)C[C@@H]3CC[C@@H](COc4cn[nH]c(=O)c4C(F)(F)F)O3)CC2)nc1 (single isomer, unassigned) [Example 580 Isomer A] , tested on PARP7 (Homo sapiens (Human), UniProt Q7Z3E1).
6.00 to 7.00

Request body: readout pIC50, system PARP7 (Homo sapiens (Human), UniProt Q7Z3E1), query O=C(C[C@H]1CC[C@@H](COc2cn[nH]c(=O)c2C(F)(F)F)O1)N1CCN(c2ncc(C(F)(F)F)cn2)CC1 [Example 574 Isomer C] . Return the value.
> 7.00
